Source of measurements: patent US5057493A

testProtocol: 50% lethal dose (LD50) in mice
Assay type: in vivo
details: p.o.
Starred links: 1 amine or outer side, 2 acyl side, 3 side chain; linkers in the order of their positions; H or OH if unused. Non-standard residues stand in square brackets, D forms with d. Residues, ends and D or L forms follow the SMILES beside them. ξ: configuration not given here. X2 = CN(C(C(=O)[*:2])C(O)c1ccccc1)[*:1]; ξNMeVal(3-OH) = CNC(C(=O)O)C(C)(C)O; NMeF = CN[CH](Cc1ccccc1)C(=O)O; X1 = CCC(C)C(O[*:1])C(=O)[*:2]; NMeV = CN[CH](C(=O)O)C(C)C; Hiv = CC(C)[CH](O)C(=O)O
Could you please report measured LD50 for the items listed next?

Example entries begin here.
compound | result
CCC(C)C1OC(=O)C(C(C)(C)O)N(C)C(=O)C(CC(C)C)NC(=O)C(C(C)C)N(C)C(=O)C(CC(C)C)NC(=O)C2CCCN2C(=O)C(Cc2ccccc2)N(C)C(=O)C(Cc2ccccc2)NC(=O)C(C(C)C)N(C)C1=O (centres unmarked) [Compound 9] (cyclo([ξNMeVal(3-OH)][X1][NMeV]F[NMeF]PL[NMeV]L); configuration not given here) | > 200 mg/kg
CCC(C)C1NC(=O)C2CCCN2C(=O)C(Cc2ccccc2)N(C)C(=O)C(Cc2ccccc2)NC(=O)C(C(C)C)N(C)C(=O)C(C(C)CC)OC(=O)C(C(C)C)N(C)C(=O)C(CC(C)C)NC(=O)C(C(C)C)N(C)C1=O (centres unmarked) [Compound 7] (cyclo([X1][NMeV]F[NMeF]PI[NMeV]L[NMeV]); configuration not given here) | > 200 mg/kg
CCC(C)C1NC(=O)C2CCCN2C(=O)C(Cc2ccccc2)N(C)C(=O)C(Cc2ccccc2)NC(=O)C(C(C)C)N(C)C(=O)C(C(C)C)OC(=O)C(C(C)(C)O)N(C)C(=O)C(CC(C)C)NC(=O)C(C(C)C)N(C)C1=O (centres unmarked) [Compound 2] (cyclo([ξNMeVal(3-OH)][Hiv][NMeV]F[NMeF]PI[NMeV]L); configuration not given here) | > 200 mg/kg
CCC(C)C1NC(=O)C2CCCN2C(=O)C(Cc2ccccc2)N(C)C(=O)C(Cc2ccccc2)NC(=O)C(C(C)C)N(C)C(=O)C(C(C)CC)OC(=O)C(C(C)(C)O)N(C)C(=O)C(CC(C)C)NC(=O)C(C(C)C)N(C)C1=O (centres unmarked) [Compound 1] (cyclo([ξNMeVal(3-OH)][X1][NMeV]F[NMeF]PI[NMeV]L); configuration not given here) | > 1000 mg/kg

[ask] Requested field: LD50. Item: CCC(C)C1NC(=O)C2CCCN2C(=O)C(C(O)c2ccccc2)N(C)C(=O)C(Cc2ccccc2)NC(=O)C(C(C)C)N(C)C(=O)C(C(C)CC)OC(=O)C(C(C)(C)O)N(C)C(=O)C(CC(C)C)NC(=O)C(C(C)C)N(C)C1=O (centres unmarked) [Compound 5] (cyclo([X2]PI[NMeV]L[ξNMeVal(3-OH)][X1][NMeV]F); configuration not given here)
[reply] > 200 mg/kg

----------
Tested on: Cryptococcus neoformans TIMM 0354
testProtocol: MIC by agar dilution method, casitone agar
Type: cell-based
details: Table 5
Starred links: 1 amine or outer side, 2 acyl side, 3 side chain; linkers in the order of their positions; H or OH if unused. Non-standard residues stand in square brackets, D forms with d. Residues, ends and D or L forms follow the SMILES beside them. ξ: configuration not given here. ξNMeVal(3-OH) = CNC(C(=O)O)C(C)(C)O; NMeF = CN[CH](Cc1ccccc1)C(=O)O; X1 = CCC(C)C(O[*:1])C(=O)[*:2]; NMeV = CN[CH](C(=O)O)C(C)C
measuredEndpoint: minimum inhibitory concentration (MIC)
Give bare numbers.

[ask] Give minimum inhibitory concentration (MIC) (Cryptococcus neoformans TIMM 0354) of the following molecule: CCC(C)C1OC(=O)C(C(C)(C)O)N(C)C(=O)C(CC(C)C)NC(=O)C(C(C)C)N(C)C(=O)C(C(C)C)NC(=O)C2CCCN2C(=O)C(Cc2ccccc2)N(C)C(=O)C(Cc2ccccc2)NC(=O)C(C(C)C)N(C)C1=O (centres unmarked) [Compound 3] (cyclo([ξNMeVal(3-OH)][X1][NMeV]F[NMeF]PV[NMeV]L); configuration not given here)
[reply] 1.56
